Experiment: in vitro
Details: human
The entries below are paired with their reported CC50 at 3 days.

Examples with answers:
CCc1cc(C(=O)N2CCc3ccccc3[C@H]2C)nn2cc(-c3ccc(N4C[C@H](O)[C@@H](O)C4)cc3F)nc12	24.5 µM
C[C@@H]1c2ccccc2CCN1C(=O)c1cc(C2CC2)c2nc(-c3ccc(NC(=O)N4CC[C@@H](O)C4)cc3F)cn2c1	40.1 µM

**Query** Bench note: what CC50 at 3 days did C[C@@H]1c2ccccc2CCN1C(=O)c1cn2cc(-c3ccc(NC(=O)N4CC[C@@H](O)C4)cc3F)nc2c(C2CC2)n1 show?
**Result** > 100 µM

**Query** Record: C[C@@H]1CCCCCN1C(=O)c1cc(C2CC2)c2nc(-c3ccc(N4CC[C@H](C(N)=O)C4)cc3F)cn2c1
**Result** 13.2 µM

**Query** Record: C[C@@H]1c2ccsc2CCN1C(=O)c1cc(C2CC2)c2nc(-c3ccc(N4CC[C@H](C(N)=O)C4)nc3F)cn2c1 (single isomer, unassigned)
**Result** 34.7 µM

**Query** Record: C[C@@H]1c2ccccc2CCN1C(=O)c1cn2cc(-c3ccc(N4C[C@H](O)[C@@H](O)C4)cc3F)nc2c(C2CC2)n1
**Result** 58.8 µM

**Query** Record: C[C@@H]1c2ccccc2CCN1C(=O)c1cc(-c2cccnc2)c2nc(-c3ccc(N4CC[C@H](C(N)=O)C4)cc3F)cn2c1
**Result** 44.3 µM

**Query** Record: C[C@@H]1c2ccccc2CCN1C(=O)c1cc(N(C)C)c2nc(-c3ccc(N4CC[C@H](C(N)=O)C4)cc3F)cn2c1
**Result** 43.9 µM

**Query** Record: C[C@@H]1c2ccccc2CCN1C(=O)c1cc(C2CC2)c2nc(-c3ccc(C4C[C@@H]4C(N)=O)cc3F)cn2c1 (relative stereo)
**Result** 65.4 µM

**Query** Record: C[C@@H]1c2ccccc2CCN1C(=O)c1cc(C2CC2)c2nc(-c3ccc(C(=O)O)cc3F)cn2c1
**Result** 60.4 µM

**Query** Record: C[C@@H]1c2ccccc2CCN1C(=O)c1cc(-c2cccc(F)c2)c2nc(-c3ccc(NC(=O)N4CC[C@@H](O)C4)cc3F)cn2n1
**Result** > 100 µM

**Query** Record: C[C@@H]1c2ccccc2CCN1C(=O)c1cc(C2CC2)c2nc(-c3ccc(N4CC[C@H](O)C4)cc3F)cn2c1
**Result** 67.7 µM

**Query** Record: C[C@@H]1c2ccccc2CCN1C(=O)c1cc(C2CC2)c2nc(-c3ccc(NC(=O)N4CC[C@@H](O)C4)cc3F)cn2n1
**Result** 32.2 µM
